target: ΔF508-CFTR (Homo sapiens, UniProt P13569, DEL508-508); construct: expressed in transfected cells; assay: Membrane potential optical assay (FRET voltage-sensor dyes, VIPR), identification of potentiator compounds; type: cell-based; conditions: Table 3; assay not given; read-out: % Activity (% Efficacy, relative efficacy)
Sequence (P13569 with tags, fused parts or gaps DEL508-508): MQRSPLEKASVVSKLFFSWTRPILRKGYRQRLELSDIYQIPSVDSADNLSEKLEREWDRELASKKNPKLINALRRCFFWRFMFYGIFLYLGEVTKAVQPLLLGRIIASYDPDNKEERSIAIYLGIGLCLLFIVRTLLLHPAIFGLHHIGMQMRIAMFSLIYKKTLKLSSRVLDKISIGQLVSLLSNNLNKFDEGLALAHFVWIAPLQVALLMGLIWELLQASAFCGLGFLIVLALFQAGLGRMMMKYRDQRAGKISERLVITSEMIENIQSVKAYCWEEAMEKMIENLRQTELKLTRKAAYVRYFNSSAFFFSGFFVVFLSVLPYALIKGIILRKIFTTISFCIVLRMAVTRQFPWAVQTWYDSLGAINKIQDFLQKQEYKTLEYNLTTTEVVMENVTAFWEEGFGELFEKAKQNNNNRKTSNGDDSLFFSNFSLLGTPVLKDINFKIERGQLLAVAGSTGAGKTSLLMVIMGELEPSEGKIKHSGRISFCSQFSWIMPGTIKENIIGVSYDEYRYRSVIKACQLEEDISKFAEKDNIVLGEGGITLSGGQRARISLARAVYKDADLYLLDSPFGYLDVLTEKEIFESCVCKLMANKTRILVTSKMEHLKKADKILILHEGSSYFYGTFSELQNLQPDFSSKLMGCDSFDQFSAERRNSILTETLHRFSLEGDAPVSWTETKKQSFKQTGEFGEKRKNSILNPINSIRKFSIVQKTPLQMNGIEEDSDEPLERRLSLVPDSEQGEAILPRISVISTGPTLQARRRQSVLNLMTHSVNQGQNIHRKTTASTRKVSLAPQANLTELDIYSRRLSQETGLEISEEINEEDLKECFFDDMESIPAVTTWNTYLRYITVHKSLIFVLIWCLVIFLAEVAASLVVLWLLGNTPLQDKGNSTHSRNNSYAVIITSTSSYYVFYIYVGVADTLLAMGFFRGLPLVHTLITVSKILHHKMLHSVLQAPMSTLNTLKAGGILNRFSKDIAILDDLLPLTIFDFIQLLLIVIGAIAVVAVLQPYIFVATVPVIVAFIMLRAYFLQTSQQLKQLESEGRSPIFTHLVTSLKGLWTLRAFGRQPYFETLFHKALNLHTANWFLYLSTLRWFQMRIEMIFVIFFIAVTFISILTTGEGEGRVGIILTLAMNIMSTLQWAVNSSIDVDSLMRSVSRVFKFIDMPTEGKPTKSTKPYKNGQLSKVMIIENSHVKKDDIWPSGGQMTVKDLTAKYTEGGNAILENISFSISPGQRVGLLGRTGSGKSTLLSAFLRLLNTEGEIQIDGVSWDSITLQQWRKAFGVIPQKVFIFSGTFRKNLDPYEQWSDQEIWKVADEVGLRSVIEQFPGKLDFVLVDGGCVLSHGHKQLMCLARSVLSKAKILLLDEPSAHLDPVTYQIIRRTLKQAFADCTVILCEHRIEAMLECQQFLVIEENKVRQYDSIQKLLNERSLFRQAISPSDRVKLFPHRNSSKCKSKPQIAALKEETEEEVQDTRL
experimental_readout: Emax

substance_smiles	test_value
CCOCCc1c[nH]c2cc(NC(=O)c3c[nH]c4ccccc4c3=O)ccc12	25 to 100%
O=C(Nc1ccc2[nH]ccc2c1)c1c[nH]c2ccccc2c1=O	25 to 100%
Cc1ccc(C#N)c(NC(=O)c2c[nH]c3ccccc3c2=O)c1	< 25%
CC(C)(C)c1cccc(NC(=O)c2c[nH]c3ccccc3c2=O)c1	25 to 100%
CC1(c2ccc(NC(=O)c3c[nH]c4ccccc4c3=O)cc2)COC1	25 to 100%
N#CCc1c[nH]c2cc(NC(=O)c3c[nH]c4ccccc4c3=O)ccc12	25 to 100%
COc1cc2c(=O)c(C(=O)Nc3cc4[nH]ccc4cc3C(C)(C)C)c[nH]c2cc1F	> 100%
CC(=O)c1ccc2c(=O)c(C(=O)Nc3cc(O)c(C(C)(C)C)cc3C(C)(C)C)c[nH]c2c1	25 to 100%

---

Each entry below lists one item and its recorded EC50 value.
molecular target: ΔF508-CFTR (Homo sapiens, UniProt P13569, DEL508-508); assay: Membrane potential optical assay (FRET voltage-sensor dyes, VIPR), identification of potentiator compounds; details: Table 3; assay not given

compound	system	EC50
CC(C)c1ccc(NC(=O)c2c[nH]c3ccccc3c2=O)cc1 [Compound 425]	ΔF508-CFTR (Homo sapiens, UniProt P13569, DEL508-508)	< 10 µM
CC(C)(C)c1cc(C(C)(C)C)c(NC(=O)c2c[nH]c3ccc(C(F)(F)F)cc3c2=O)cc1O [Compound 515]	ΔF508-CFTR (Homo sapiens, UniProt P13569, DEL508-508)	10 to 25 µM
O=C(Nc1ccc(N2CCCC2)cc1)c1c[nH]c2ccccc2c1=O [Compound 674]	ΔF508-CFTR (Homo sapiens, UniProt P13569, DEL508-508)	< 10 µM
O=C(Nc1ccccc1-c1cccc(F)c1)c1c[nH]c2ccccc2c1=O [Compound 277]	ΔF508-CFTR (Homo sapiens, UniProt P13569, DEL508-508)	< 10 µM
CCc1ccc(NC(=O)c2c[nH]c3ccccc3c2=O)cc1 [Compound 463]	ΔF508-CFTR (Homo sapiens, UniProt P13569, DEL508-508)	< 10 µM

---

molecular target: ΔF508-CFTR (Homo sapiens, UniProt P13569, DEL508-508); construct: expressed in transfected cells; experiment: Membrane potential optical assay (FRET voltage-sensor dyes, VIPR), identification of potentiator compounds; type: cell-based; details: Table 3; assay not given; read-out: % Activity (% Efficacy, relative efficacy)
Each entry below lists one item and its recorded Emax value.

substance_smiles	Emax
CC(C)(C)OC(=O)N1CCCc2ccc(NC(=O)c3c[nH]c4ccccc4c3=O)cc21	25 to 100%
COc1ccc2[nH]cc(C(=O)Nc3ccc(N4CCC[C@@H]4C)cc3C(F)(F)F)c(=O)c2c1	25 to 100%
CCOc1ccc(OCC)c(NC(=O)c2c[nH]c3ccccc3c2=O)c1	25 to 100%
CCc1ccc(NC(=O)c2c[nH]c3ccccc3c2=O)cc1	25 to 100%
CCC(=O)Nc1cccc(NC(=O)c2c[nH]c3ccccc3c2=O)c1	< 25%
O=C(Nc1cc2[nH]ccc2cc1C(F)(F)F)c1c[nH]c2cccc(O)c2c1=O	25 to 100%
Cc1cccc(NC(=O)c2c[nH]c3ccccc3c2=O)c1C	25 to 100%
CC(C)(C)CC(=O)Nc1ccc(C(C)(C)C)c(NC(=O)c2c[nH]c3ccccc3c2=O)c1	25 to 100%
CN(Cc1ccccc1NC(=O)c1c[nH]c2ccccc2c1=O)C1CCCCC1	25 to 100%
CC(=O)Nc1cc(NC(=O)c2c[nH]c3ccccc3c2=O)ccc1C	25 to 100%
O=C(Nc1ccc(N2CCC[C@H]2CO)cc1C(F)(F)F)c1c[nH]c2ccccc2c1=O	25 to 100%
CC(C)c1c[nH]c2cc(NC(=O)c3c[nH]c4ccccc4c3=O)ccc12	25 to 100%
O=C(Nc1ccc(C2CCCCC2)c(O)c1)c1c[nH]c2ccccc2c1=O	25 to 100%
COc1ccccc1Oc1ccc(C(F)(F)F)cc1NC(=O)c1c[nH]c2ccccc2c1=O	25 to 100%
COc1cc(C#N)c(NC(=O)c2c[nH]c3ccccc3c2=O)cc1OC	< 25%
COc1ccc2[nH]cc(C(=O)Nc3cc4[nH]ccc4cc3C(C)(C)C)c(=O)c2c1	> 100%
CC(C)(C)c1cc(C(C)(C)C)c(NC(=O)c2c[nH]c3c(C(F)(F)F)cccc3c2=O)cc1O	< 25%
Nc1nc2ccc(NC(=O)c3c[nH]c4ccccc4c3=O)cc2s1	25 to 100%
O=C(Nc1cccnc1Oc1ccccc1F)c1c[nH]c2ccccc2c1=O	25 to 100%
O=C(Nc1cccc2cccnc12)c1c[nH]c2ccccc2c1=O	25 to 100%
CCc1cc(C(C)(C)C)c(O)cc1NC(=O)c1c[nH]c2ccccc2c1=O	25 to 100%
O=C(Nc1ccc2ncccc2c1)c1c[nH]c2ccccc2c1=O	< 25%
COc1ccc2c(=O)c(C(=O)Nc3cc(O)c(C(C)(C)C)cc3C(C)(C)C)c[nH]c2c1	25 to 100%
CCc1cccc(CC)c1NC(=O)c1c[nH]c2ccccc2c1=O	25 to 100%
COc1ccc2[nH]cc(C(=O)Nc3ccc(N4CCC(C)(C)C4)cc3C(F)(F)F)c(=O)c2c1	25 to 100%
O=C(Nc1cccnc1Oc1ccc(F)cc1F)c1c[nH]c2ccccc2c1=O	25 to 100%
Cc1ccc(C)n1-c1ccccc1NC(=O)c1c[nH]c2ccccc2c1=O	25 to 100%
CC(C)(C)c1cc(C(F)(F)F)c(NC(=O)c2c[nH]c3cccc(O)c3c2=O)cc1O	25 to 100%
Cc1ccc(-c2ccccc2)cc1NC(=O)c1c[nH]c2ccccc2c1=O	< 25%
CC(C)c1ccc(NC(=O)c2c[nH]c3ccccc3c2=O)c(C(F)(F)F)c1	25 to 100%
O=C(Nc1ccccc1-c1nc(-c2ccc(Cl)cc2)no1)c1c[nH]c2ccccc2c1=O	25 to 100%
O=C(Nc1cc2[nH]ccc2cc1F)c1c[nH]c2cccc(O)c2c1=O	25 to 100%
CCc1cccc(C(C)C)c1NC(=O)c1c[nH]c2ccccc2c1=O	25 to 100%
CCCc1ccc(NC)cc1NC(=O)c1c[nH]c2ccccc2c1=O	25 to 100%
O=C(Nc1ccc2[nH]c(=O)[nH]c2c1)c1c[nH]c2ccccc2c1=O	< 25%

---

molecular target: ΔF508-CFTR (Homo sapiens, UniProt P13569, DEL508-508); construct: expressed in transfected cells; assay: Membrane potential optical assay (FRET voltage-sensor dyes, VIPR), identification of potentiator compounds; format: cell-based; conditions: Table 3; assay not given; read-out: % Activity (% Efficacy, relative efficacy)
Each entry below lists one item and its recorded Emax value.
experimental_readout: Emax

substance_smiles	system	test_value
COc1ccccc1NC(=O)c1c[nH]c2ccccc2c1=O	ΔF508-CFTR (Homo sapiens, UniProt P13569, DEL508-508)	25 to 100%
N#Cc1cccc(-c2ccccc2NC(=O)c2c[nH]c3ccccc3c2=O)c1	ΔF508-CFTR (Homo sapiens, UniProt P13569, DEL508-508)	25 to 100%
O=C(Nc1ccc2oc(-c3ccccc3)nc2c1)c1c[nH]c2ccccc2c1=O	ΔF508-CFTR (Homo sapiens, UniProt P13569, DEL508-508)	< 25%
O=C(Nc1ccccc1-c1nc2ccccc2[nH]1)c1c[nH]c2ccccc2c1=O	ΔF508-CFTR (Homo sapiens, UniProt P13569, DEL508-508)	< 25%
Cc1nc2cc(NC(=O)c3c[nH]c4ccccc4c3=O)ccc2s1	ΔF508-CFTR (Homo sapiens, UniProt P13569, DEL508-508)	25 to 100%

---

molecular target: ΔF508-CFTR (Homo sapiens, UniProt P13569, DEL508-508); construct: expressed in transfected cells; assay: Membrane potential optical assay (FRET voltage-sensor dyes, VIPR), identification of potentiator compounds; type: cell-based; conditions: Table 3; assay not given; read-out: % Activity (% Efficacy, relative efficacy)

compound	system	Emax
CC(C)(C)c1ccc(NC(=O)c2c[nH]c3ccccc3c2=O)cc1N1CCCC1 [Compound 707]	ΔF508-CFTR (Homo sapiens, UniProt P13569, DEL508-508)	25 to 100%
CCCc1ccc(NC(=O)c2c[nH]c3ccccc3c2=O)cc1N(C)C [Compound 462]	ΔF508-CFTR (Homo sapiens, UniProt P13569, DEL508-508)	25 to 100%
O=C(Nc1ccccc1-c1ccccc1)c1c[nH]c2ccccc2c1=O [Compound 461]	ΔF508-CFTR (Homo sapiens, UniProt P13569, DEL508-508)	25 to 100%
COC(=O)[C@]1(C)CCCN1c1ccc(NC(=O)c2c[nH]c3ccccc3c2=O)c(C(F)(F)F)c1 [Compound 631]	ΔF508-CFTR (Homo sapiens, UniProt P13569, DEL508-508)	> 100%
